- Test system: AA1029
- method.description: qHTS profiling for inhibitors of Plasmodium falciparum proliferation (AID 504749); note: nearly all actives have a fitted effect of over 60% in size
- experimental.parameters: P. falciparum in erythrocytes, SYBR Green DNA, 72 h; series mostly up to 28.7 µM
Records with an inconclusive call do not appear. Activity calls are given as the source filed them. Calls come from the whole dose curve; as a rule, active = well fitted inhibition curve with a large enough effect; inconclusive = small, poorly fitted or top-dose-only effect; inactive = flat fitted curve, though single readings scatter.
Hi! Could you answer with just one of these? 1 (yes) = active, 0 (no) = inactive

O=C1[O][Bi][O]c2ccccc21: 0 (no)

-- ask Status in this test for O=C(NCCNCC(O)COc1ccc(O)cc1)N1CCOCC1 (centres undefined) ?
-- reply 0 (no)

-- ask Cool, now CO
-- reply 0 (no)

-- ask Param item: Cc1ncc(C[n+]2csc(CCOP(=O)(O)O)c2C)c(N)n1
-- reply 0 (no)

-- ask How about CN[C@@H]1[C@H](O[C@H]2[C@H](O[C@H]3[C@H](O)[C@@H](O)[C@H](N=C(N)N)[C@@H](O)[C@@H]3N=C(N)N)O[C@@H](C)[C@]2(O)C=O)O[C@@H](CO)[C@H](O)[C@H]1O ?
-- reply 0 (no)

-- ask Another: CC(=O)Oc1cc(C(F)(F)F)ccc1C(=O)O
-- reply 0 (no)

-- ask Also CCOC(=O)c1c[nH]c2cc(OCC(C)C)c(OCC(C)C)cc2c1=O ?
-- reply 1 (yes)

-- ask Now the compound CCCCCCCCCCCCOCCCN
-- reply 0 (no)

-- ask Next compound: COC(=O)C(CN)c1c[nH]c2ccc(OC)cc12 (centres undefined)
-- reply 0 (no)

-- ask Next compound up: O[C@@H]([C@H](O)[C@H](O)CBr)[C@H](O)CBr
-- reply 0 (no)

-- ask Param item: O=[n+]1ccn([O-])c2ccccc21
-- reply 0 (no)

-- ask Check CCCC(CCC)C(=O)OC1C[C@H]2CC[C@@H](C1)[N+]2(C)C (some centres undefined) too.
-- reply 1 (yes)

###

- Tested on: CP217
- method.description: qHTS profiling for inhibitors of Plasmodium falciparum proliferation (AID 504749); note: nearly all actives have a fitted effect of over 60% in size
- experimental.parameters: P. falciparum in erythrocytes, SYBR Green DNA, 72 h; series mostly up to 28.7 µM
Results filed as inconclusive are left out. Active and inactive are the calls of the source. Calls come from the whole dose curve; as a rule, active = well fitted inhibition curve with a large enough effect; inconclusive = small, poorly fitted or top-dose-only effect; inactive = flat fitted curve, though single readings scatter.
Write down one outcome, taken from yes (1) (active), no (0) (inactive)

Below, 5 compounds whose answers are already recorded.
CCCCC: no (0)
CCN(CC)CCOC(=O)c1cccnc1: no (0)
CC(C)O: no (0)
Cc1cc(=O)c(C(=O)N[C@@H](C(=O)N[C@@H]2C(=O)N3C(C(=O)O)=C(CSc4nnnn4C)CS[C@H]23)c2ccc(O)cc2)c[nH]1: no (0)
OC1OC[C@@H](O)[C@H](O)[C@@H]1O (some centres undefined): no (0)

-- ask Fill in: this test's call for CC(=O)Oc1cc(C(F)(F)F)ccc1C(=O)O is ___
-- reply no (0)

-- ask Repeat with CC(C)=CCC/C(C)=C/CC/C(C)=C/CC/C=C(\C)CC/C=C(\C)CCC=C(C)C
-- reply no (0)

-- ask Queued: CCN(CC)CCC(=O)N1c2ccccc2Sc2ccc(C(F)(F)F)cc21
-- reply no (0)

###

- Test system: 3D7
- method.description: qHTS profiling for inhibitors of Plasmodium falciparum proliferation (AID 504749); note: nearly all actives have a fitted effect of over 60% in size
- experimental.parameters: P. falciparum in erythrocytes, SYBR Green DNA, 72 h; series mostly up to 28.7 µM
Records with an inconclusive call do not appear. The source made the active and inactive calls. Calls follow the shape of the dose curve; as a rule, active = well fitted inhibition curve with a large enough effect; inconclusive = small, poorly fitted or top-dose-only effect; inactive = flat fitted curve, though single readings scatter.
Respond with a class label; see active, inactive

# count of solved cases: 10
CC1=CCC2CC1C2(C)C (stereo unspecified): inactive
CC(CNC(=O)c1cccnc1)NC(=O)c1cccnc1 (stereo unspecified): inactive
O=C(O)CC/C=C\CC[C@@H]1[C@@H](N2CCCCC2)[C@@H](O)C[C@@H]1OCc1ccc(-c2ccccc2)cc1: inactive
O=C(O)Cc1nn(Cc2ccc(Br)cc2F)c(=O)c2ccccc12: inactive
CCOC(=O)C1=C(COCCN)NC(C)=C(C(=O)OC)C1c1ccccc1Cl (stereo unspecified): inactive
CCCCCCCCCCCC(=O)N(CCO)CCO: inactive
C=CCOc1ccc(CC(=O)O)cc1Cl: inactive
CC(C)[C@@H](N)C(=O)O: inactive
CCCOC(=O)c1ccccc1O: inactive
O=C(O)c1ccc(NC(=O)[C@H](Cc2ccc(O)cc2)NC(=O)c2ccccc2)cc1: inactive

-- ask What is the recorded call for this molecule in the test? O=C1N=C2SCCN2C(=O)C1Cc1ccc(Cl)cc1 (stereo unspecified)
-- reply inactive

-- ask Now the same for CC(=O)Nc1c(I)c(C(=O)O)c(I)c(N(C)C(C)=O)c1I
-- reply inactive

-- ask Field entry: [O]=[Bi][O][Bi]=[O]
-- reply inactive

-- ask What do you have for O=C(O[C@H]1CN2CCC1CC2)N1CCc2ccccc2[C@@H]1c1ccccc1 ?
-- reply inactive

-- ask Also C=Cc1ccc(S(=O)(=O)O)cc1 ?
-- reply inactive

-- ask Another molecule to check: CC(=O)Oc1cc(C(F)(F)F)ccc1C(=O)O
-- reply inactive

-- ask // repeat for CNC(=O)c1c(I)c(C(=O)NCC(=O)Nc2c(I)c(C(=O)O)c(I)c(C(=O)NCCO)c2I)c(I)c(N(C)C(C)=O)c1I and report
-- reply inactive

-- ask Try N=C(N)n1cccn1 next.
-- reply inactive

###

- Test system: MKL-1
- method.description: qHTS assay to identify novel small-molecules to repurpose for Merkel cell carcinoma treatment (AID 1296009)
- experimental.parameters: MCC and control cell lines, CellTiter-Glo viability, 72 h; series mostly up to 46 µM
Inconclusive results are not listed. Activity calls are given as the source filed them. Calls follow the shape of the dose curve; as a rule, active = well fitted inhibition curve with a large enough effect; inconclusive = small, poorly fitted or top-dose-only effect; inactive = flat fitted curve, though single readings scatter.
assay.metric: outcome

Below, 5 molecules whose answers are already recorded.
CN(C)CCCSc1ccccc1NC(=O)/C=C/c1ccccc1: inactive
COc1ccc2nc(NC(=O)Nc3ccccc3)sc2c1: inactive
Nc1ccc(N=Nc2ccccc2)c(N)n1: inactive
O=C1c2ccccc2C(=O)c2c1ccc(O)c2O: inactive
CC(=O)Oc1cccc2c1C(=O)c1c(OC(C)=O)cc(C(=O)O)cc1C2=O: inactive

-- ask // lookup outcome for Oc1ccc(/C=C/c2cc(O)cc(O)c2)cc1
-- reply inactive

-- ask Try this molecule too: O=C(O)CCC(=O)c1ccc(-c2ccccc2)cc1
-- reply inactive

###

- method.description: Drug repurposing screens with cells derived from glioblastoma tumor samples (AID 1345199); note: % is set by controls: 0 for no effect and ±100 for the full control effect; nearly all actives have a fitted effect of over 40% in size
- experimental.parameters: GBM patient neurospheres viability, ATP luminescence, 48 h; at 45.9 µM (top of the series); tumour line B
Results filed as inconclusive are left out.
assay.metric: activity, negative = cell killing (%)
Write it as a number; the unit % goes unstated.

See these solved cases before continuing.
O=C1N=C2SCCN2C(=O)C1Cc1ccc(Cl)cc1 (stereo not drawn): -17.4
C=C1[C@H](CO)[C@@H](O)C[C@@H]1n1cnc2c(=O)[nH]c(N)nc21: -13.2
CNC(=O)OCc1cccc(COC(=O)NC)n1: -20.8
C=Cc1c(C)c2cc3nc(cc4[nH]c(cc5nc(cc1[nH]2)C(C)=C5CCC(=O)OC)c(CCC(=O)O)c4C)[C@@]1(C)C3=CC=C(C(=O)OC)[C@H]1C(=O)OC: -5.62
CNCC(=O)N[C@@H](CCCN=C(N)N)C(=O)N[C@H](C(=O)N[C@@H](Cc1ccc(O)cc1)C(=O)N[C@H](C(=O)N[C@@H](Cc1cnc[nH]1)C(=O)N1CCC[C@H]1C(=O)N[C@@H](C)C(=O)O)C(C)C)C(C)C: -7.12

-- ask Entry O=C(CO)[C@@H](O)[C@H](O)[C@@H](O)C(=O)O : reported activity, negative = cell killing = ?
-- reply -4.69

-- ask Param item: CC(C)C[C@@H](NC(=O)[C@@H](O)[C@H](N)Cc1ccccc1)C(=O)O
-- reply -12.5

-- ask How about this molecule: CCCCO
-- reply -10.8

-- ask Cool, now Nc1nc(=O)n([C@@H]2CS[C@H](CO)O2)cc1F
-- reply -1.96

-- ask Try the molecule O=C(O)c1ccc(NC(=O)[C@H](Cc2ccc(O)cc2)NC(=O)c2ccccc2)cc1
-- reply -3.63

-- ask What would you report for O=C1c2ccccc2C(=O)C1c1ccc(F)cc1 ?
-- reply -20.2

###

- Tested on: FAB9
- method.description: qHTS profiling for inhibitors of Plasmodium falciparum proliferation (AID 504749); note: nearly all actives have a fitted effect of over 60% in size
- experimental.parameters: P. falciparum in erythrocytes, SYBR Green DNA, 72 h; series mostly up to 28.7 µM
Inconclusive results are not listed. The source made the active and inactive calls. Calls follow the shape of the dose curve; as a rule, active = well fitted inhibition curve with a large enough effect; inconclusive = small, poorly fitted or top-dose-only effect; inactive = flat fitted curve, though single readings scatter.
assay.metric: outcome

C[C@H](N)C(=O)N[C@@H](C)P(=O)(O)O: inactive
COC1=C(OC)C(=O)C(C/C=C(\C)CC/C=C(\C)CC/C=C(\C)CC/C=C(\C)CC/C=C(\C)CC/C=C(\C)CC/C=C(\C)CC/C=C(\C)CC/C=C(\C)CCC=C(C)C)=C(C)C1=O: inactive
N#Cc1ccc2c(c1)N(CCCN1CCC(O)CC1)c1ccccc1S2: inactive
Oc1ccc(Cl)c2c1CCC2: inactive
